MEASURED_ON: Rat ASCT2 (Rattus norvegicus, UniProt D3ZJ25)
Sequence (D3ZJ25 whole entry): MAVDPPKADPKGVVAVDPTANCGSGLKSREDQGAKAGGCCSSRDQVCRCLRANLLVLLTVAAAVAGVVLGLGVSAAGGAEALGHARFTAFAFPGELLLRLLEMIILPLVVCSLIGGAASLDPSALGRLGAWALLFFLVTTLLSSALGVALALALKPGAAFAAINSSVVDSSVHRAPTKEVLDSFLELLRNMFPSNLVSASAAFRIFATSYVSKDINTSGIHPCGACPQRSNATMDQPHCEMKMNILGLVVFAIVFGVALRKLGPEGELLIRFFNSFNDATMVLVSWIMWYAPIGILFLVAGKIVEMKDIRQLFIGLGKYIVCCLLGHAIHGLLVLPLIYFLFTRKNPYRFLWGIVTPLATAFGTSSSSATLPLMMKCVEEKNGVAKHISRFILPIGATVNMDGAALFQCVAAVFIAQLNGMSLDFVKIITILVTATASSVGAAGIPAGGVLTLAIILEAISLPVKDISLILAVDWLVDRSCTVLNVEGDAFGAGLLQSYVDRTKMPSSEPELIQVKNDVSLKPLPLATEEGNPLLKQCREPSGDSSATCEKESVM
MEASURED_PARAMETER: Ki (µM)
Answers are plain numbers, in µM.

What does the data say about its Ki? Entry: O=C(O)[C@@H]1C[C@@H](Cc2ccccc2F)CN1 [(R)-γ-(2-fluoro-benzyl)-L-proline]
83

Cited source: paper PMC5363072
